- assay_system: NLRP3 (Homo sapiens)
- assay_procedure: Human whole blood IL1β release assay (LPS + nigericin, AlphaLisa IL-1β)
- Assay type: cell-based
- Set-up: Human whole blood in Li-heparin tubes was obtained from healthy donors from a volunteer donor panel; from tissue; host or cells: human whole blood from healthy donors
- run_parameters: NLRP3 inhibitory activity, 1 μg/ml LPS, 10 μM nigericin, IL-1β release, read-out: HWB IC50
Listed next: entries and their corresponding IC50.

The examples below pair each entry with its known result.
COc1cc(-c2ccc3c(c2NC(=O)NS(=O)(=O)c2cc(CN(C)C)n(C(C)C)n2)CCC3)ccn1; < 0.4 µM
CC(c1cc(S(=O)(=O)NC(=O)Nc2c3c(cc4c2CCC4)CCC3)nn1C)N1CCC1 (stereo not shown) [Example 76]; < 0.4 µM
CC(C)c1cc(F)cc(-c2ccccc2)c1NC(=O)NS(=O)(=O)c1cc(CN(C)C)n(C(C)C)n1; 1.6 to 3.2 µM

Prompt line: Requested read-out: IC50. Entry: CCn1nc(S(=O)(=O)NC(=O)Nc2c3c(cc4c2CCC4)CCC3)cc1CN1CCC1
Response line: < 0.4 µM

----------
- assay_procedure: PK protocol, oral administration
- Format: in vivo, male Sprague Dawley rats
- run_parameters: male, Sprague Dawley, rat, plasma, po, dose (mg/kg)
- Protocol: Pharmacokinetic parameters were determined in male Sprague Dawley rats (Charles River, UK, 250-350 g; or Vital River Laboratory Animal Technology Co Ltd, Beijing, China, 7-9 weeks old). Animals were individually housed during the study and maintained under a 12 h light/dark cycle. Animals had free access to food and water except that some orally dosed animals were food deprived overnight prior to the study. […]
parameter: half-life (h)

The examples below pair each entry with its known result.
CC(c1cc(S(=O)(=O)NC(=O)Nc2c3c(cc4c2CCC4)CCC3)nn1C)N1CCC1 (centres unmarked); 2.9
CN(C)Cc1cc(S(=O)(=O)NC(=O)Nc2c3c(cc4c2CCC4)CCC3)nn1C; 1.5

(a) CN(C)Cc1cc(S(=O)(=O)NC(=O)Nc2c3c(cc4c2CCC4)CCC3)nn1C1CC1
(b) CNCc1cc(S(=O)(=O)NC(=O)Nc2c3c(cc4c2CCC4)CCC3)nn1C(C)C
(c) CC(c1cc(S(=O)(=O)NC(=O)Nc2c3c(cc4c2CCC4)CCC3)nn1C)N(C)C (single isomer, unassigned; enantiomer 1)
Prompt line: Sort entries by half-life from minimum to maximum value. Would you mind listing the labels in the order requested?
Response line: c, a, b

----------
- assay_procedure: PK protocol, intravenous administration
- Format: in vivo, male Sprague Dawley rats
- run_parameters: male, Sprague Dawley, rat, plasma, dose (mg/kg), read-out: Vdss
Structures can show the parent of a compound that is named as a salt.
parameter: Vd (L/kg)

The examples below pair each entry with its known result.
Cn1nc(S(=O)(=O)NC(=O)Nc2c3c(cc4c2CCC4)CCC3)cc1CN1CCC1 [Example 86, Sodium Salt]; 0.48
CCC(c1cc(S(=O)(=O)NC(=O)Nc2c3c(cc4c2CCC4)CCC3)nn1C(C)C)N(C)C (stereo not drawn); 0.25
CCn1nc(S(=O)(=O)NC(=O)Nc2c3c(cc4c2CCC4)CCC3)cc1CN1CCC1; 0.34
CN(C)Cc1cc(S(=O)(=O)NC(=O)Nc2c3c(cc4c2CCC4)CCC3)nn1C1CC1; 0.36
CC(c1cc(S(=O)(=O)NC(=O)Nc2c3c(cc4c2CCC4)CCC3)nn1C)N(C)C (stereo not drawn); 0.38

(I) CC(C)N(C)Cc1cc(S(=O)(=O)NC(=O)Nc2c3c(cc4c2CCC4)CCC3)nn1C
(II) CC(c1cc(S(=O)(=O)NC(=O)Nc2c3c(cc4c2CCC4)CCC3)nn1C)N1CCC1 (single isomer, unassigned; enantiomer 2) [Example 27]
Prompt line: Smaller Vd value? Options are I and II Label of pick, please.
Response line: II

(P) CC(C)c1cc(F)cc(C(C)C)c1NC(=O)NS(=O)(=O)c1cc(CN2CCC2)n(C)n1 [Example 88, Sodium Salt]
(Q) CCC(c1cc(S(=O)(=O)NC(=O)Nc2c3c(cc4c2CCC4)CCC3)nn1C1CC1)N(C)C (stereo not drawn)
Prompt line: Smaller Vd value? Options are P and Q Label of pick, please.
Response line: Q

----------
- assay_system: NLRP3 (Homo sapiens)
- assay_procedure: Human whole blood IL1β release assay (LPS + nigericin, AlphaLisa IL-1β)
- Type: cell-based
- Set-up: Human whole blood in Li-heparin tubes was obtained from healthy donors from a volunteer donor panel; from tissue; host or cells: human whole blood from healthy donors
- run_parameters: NLRP3 inhibitory activity, 1 μg/ml LPS, 10 μM nigericin, IL-1β release, read-out: HWB IC50
Counter-ions that a name gives are not always drawn.
Listed next: entries and their corresponding IC50.

The examples below pair each entry with its known result.
CC(C)Oc1cc(-c2cc(F)cc(C(C)C)c2NC(=O)NS(=O)(=O)c2cc(C(=O)N(C)C)n(C)n2)ccn1 [Example 176, sodium salt]; 1600 to 3200 nM
CN(C)Cc1cc(S(=O)(=O)NC(=O)Nc2c3c(cc4c2CCC4)CCC3)nn1CC(C)(C)C; 400 to 800 nM
O=C(Nc1c2c(cc3c1CCC3)CCC2)NS(=O)(=O)c1cc(CN2CCC2)n(C2CC2)n1; 400 to 800 nM
COCCN(C)Cc1cc(S(=O)(=O)NC(=O)Nc2c3c(cc4c2CCC4)CCC3)nn1C [Example 119, Sodium Salt]; 1600 to 3200 nM

Now look at this entry.
Prompt line: Requested read-out: IC50. Entry: CN(C)C1(c2cc(S(=O)(=O)NC(=O)Nc3c4c(cc5c3CCC5)CCC4)nn2C)COC1
Response line: 800 to 1600 nM

----------
- assay_system: UniProt Q96P20
- assay_procedure: Human whole blood IL1β release assay (LPS + nigericin, AlphaLisa IL-1β)
- Type: cell-based
- Design: Human whole blood in Li-heparin tubes was obtained from healthy donors from a volunteer donor panel; from tissue; host or cells: human whole blood from healthy donors
- run_parameters: NLRP3 inhibitory activity, 1 μg/ml LPS, 10 μM nigericin, IL-1β release, read-out: HWB IC50
pIC50: −log10 of the molar value. Structures can show the parent of a compound that is named as a salt.
Listed next: entries and their corresponding pIC50.

The examples below pair each entry with its known result.
CN1CCn2nc(S(=O)(=O)NC(=O)Nc3c4c(cc5c3CCC5)CCC4)cc2C1 [Example 5]; 5.49 to 5.80
CC1CN(C(C)c2cc(S(=O)(=O)NC(=O)Nc3c4c(cc5c3CCC5)CCC4)nn2C)C1 (stereo not shown) [Example 29]; 6.10 to 6.40

Prompt line: Requested read-out: pIC50. Entry: CC(c1cc(S(=O)(=O)NC(=O)Nc2c3c(cc4c2CCC4)CCC3)nn1C)N(C)C (single isomer, unassigned; enantiomer 2) [Example 70]
Response line: > 6.40

Prompt line: Requested read-out: pIC50. Entry: CCC(c1cc(S(=O)(=O)NC(=O)Nc2c(C(C)C)cc(F)cc2C(C)C)nn1C(C)C)N(C)C (stereo not shown) [Example 62]
Response line: 6.10 to 6.40

Prompt line: Requested read-out: pIC50. Entry: CCC(c1cc(S(=O)(=O)NC(=O)Nc2c3c(cc4c2CCC4)CCC3)nn1C)N(C)C (single isomer, unassigned; enantiomer 2) [Example 72]
Response line: > 6.40

Prompt line: Requested read-out: pIC50. Entry: CC(C)c1cc(F)cc(-c2cccnc2)c1NC(=O)NS(=O)(=O)c1cc(C(=O)N(C)C)n(C)n1 [Example 134, sodium Salt]
Response line: > 6.40

Prompt line: Requested read-out: pIC50. Entry: CNCc1cc(S(=O)(=O)NC(=O)Nc2c(-c3ccnc(OC)c3)ccc3c2CCC3)nn1C1CC1 [Example 178]
Response line: > 6.40

----------
Listed next: entries and their corresponding IC50.
- assay_system: NLRP3 (Homo sapiens, UniProt Q96P20)
- Sequence (Q96P20 whole entry): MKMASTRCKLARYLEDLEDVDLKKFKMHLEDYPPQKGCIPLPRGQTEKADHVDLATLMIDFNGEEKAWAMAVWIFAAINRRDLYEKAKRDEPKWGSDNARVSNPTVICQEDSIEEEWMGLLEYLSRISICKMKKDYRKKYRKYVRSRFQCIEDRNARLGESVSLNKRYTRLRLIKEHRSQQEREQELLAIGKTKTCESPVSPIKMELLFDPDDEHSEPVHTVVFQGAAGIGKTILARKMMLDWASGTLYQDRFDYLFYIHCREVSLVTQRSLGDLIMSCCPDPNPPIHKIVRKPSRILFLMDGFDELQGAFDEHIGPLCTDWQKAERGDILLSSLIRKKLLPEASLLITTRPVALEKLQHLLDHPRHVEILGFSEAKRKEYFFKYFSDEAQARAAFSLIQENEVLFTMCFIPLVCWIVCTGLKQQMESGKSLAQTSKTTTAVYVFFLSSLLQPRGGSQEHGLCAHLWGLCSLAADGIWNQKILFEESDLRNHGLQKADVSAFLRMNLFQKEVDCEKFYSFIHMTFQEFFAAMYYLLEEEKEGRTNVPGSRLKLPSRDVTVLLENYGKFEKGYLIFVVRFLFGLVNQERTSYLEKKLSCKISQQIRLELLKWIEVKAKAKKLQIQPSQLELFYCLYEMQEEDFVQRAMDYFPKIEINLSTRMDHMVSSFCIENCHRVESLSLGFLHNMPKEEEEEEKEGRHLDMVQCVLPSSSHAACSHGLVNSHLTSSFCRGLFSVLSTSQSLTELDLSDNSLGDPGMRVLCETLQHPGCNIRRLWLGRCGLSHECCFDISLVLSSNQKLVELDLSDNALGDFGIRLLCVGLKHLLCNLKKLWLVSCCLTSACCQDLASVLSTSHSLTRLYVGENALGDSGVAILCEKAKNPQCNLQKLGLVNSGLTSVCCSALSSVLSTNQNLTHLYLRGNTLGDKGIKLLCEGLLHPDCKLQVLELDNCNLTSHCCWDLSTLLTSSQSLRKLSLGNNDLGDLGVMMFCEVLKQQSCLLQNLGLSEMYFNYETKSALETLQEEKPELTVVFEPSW
- assay_procedure: THP-1 cells pyroptosis assay (LPS + nigericin, resazurin readout)
- Assay type: cell-based
- Parameters: Seed THP-1 cells (25,000 cells/well) containing 1.0 μg/ml LPS in 40 μl of RPMI medium; host or cells: THP-1 cells
- run_parameters: NLRP3 inhibitory activity, 1.0 μg/ml LPS, 5 μM nigericin
Counter-ions that a name gives are not always drawn.

The examples below pair each entry with its known result.
CC(C)n1nc(S(=O)(=O)NC(=O)Nc2c3c(cc4c2CCC4)CCC3)cc1CN(C)CC(F)(F)F; 40 to 160 nM
CN(Cc1cc(S(=O)(=O)NC(=O)Nc2c3c(cc4c2CCC4)CCC3)nn1C)CC(F)(F)F [Example 97, Sodium Salt]; 160 to 640 nM
CC(c1cc(S(=O)(=O)NC(=O)Nc2c3c(cc4c2CCC4)CCC3)nn1C)N1CCC1 (single isomer, unassigned; enantiomer 2) [Example 27]; 40 to 160 nM
CN(C)Cc1cc(S(=O)(=O)NC(=O)Nc2c3c(cc4c2CCC4)CCC3)nn1CC(C)(C)C; 40 to 160 nM
CC(C)n1nc(S(=O)(=O)NC(=O)Nc2c3c(cc4c2CCC4)CCC3)cc1CCN(C)C [Example 33, Sodium Salt]; 160 to 640 nM
CC(C)c1cc(F)cc(-c2cccnc2)c1NC(=O)NS(=O)(=O)c1cc(C(=O)N(C)C)n(C)n1 [Example 134, sodium Salt]; 40 to 160 nM

Now look at this entry.
Prompt line: Requested read-out: IC50. Entry: CN(C)C(C)(C)c1cc(S(=O)(=O)NC(=O)Nc2c3c(cc4c2CCC4)CCC3)nn1C
Response line: 40 to 160 nM
